Attribution: paper PMC7397249

Recorded IC50, one value per entry.
- tgt: SIRT2 (Homo sapiens, UniProt Q8IXJ6)
- Construct: host or cells: E. coli
- Sequence (Q8IXJ6 whole entry): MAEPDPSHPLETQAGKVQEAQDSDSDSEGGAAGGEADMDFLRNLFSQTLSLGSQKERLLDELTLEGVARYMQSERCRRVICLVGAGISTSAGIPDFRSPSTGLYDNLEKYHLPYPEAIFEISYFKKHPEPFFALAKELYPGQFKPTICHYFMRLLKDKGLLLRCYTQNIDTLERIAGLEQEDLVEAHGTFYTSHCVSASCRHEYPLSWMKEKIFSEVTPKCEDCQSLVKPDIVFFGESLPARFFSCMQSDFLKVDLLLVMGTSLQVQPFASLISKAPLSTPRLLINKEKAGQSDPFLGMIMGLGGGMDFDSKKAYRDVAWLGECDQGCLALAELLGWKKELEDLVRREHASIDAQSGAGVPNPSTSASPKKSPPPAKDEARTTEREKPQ
- assay-remarks: Modified Fluor de Lys fluorescence-based assay, SIRT2
- Format: biochemical
- experimental-setup: from 200 μM; p53 379-382 AMC substrate, NAD+
experimental-readout: IC50

compound="O=C1/C(=C/c2ccccc2Br)CN(CCC(=O)c2ccccc2)C/C1=C\\c1ccccc1Br [Compound 4i]" tgt="SIRT2 (Homo sapiens, UniProt Q8IXJ6)" assay_result="> 200 µM"
compound="O=C1/C(=C/c2ccccc2Br)CN(CCc2ccccc2)C/C1=C\\c1ccccc1Br [Compound 4f]" tgt="SIRT2 (Homo sapiens, UniProt Q8IXJ6)" assay_result="> 200 µM"
compound="O=C1/C(=C/c2ccccc2Br)CN(Cc2ccccc2)C/C1=C\\c1ccccc1Br [Compound 4e]" tgt="SIRT2 (Homo sapiens, UniProt Q8IXJ6)" assay_result="> 200 µM"
compound="O=C1/C(=C/c2ccccc2Br)CN(CCCC(=O)c2ccccc2)C/C1=C\\c1ccccc1Br [Compound 4j]" tgt="SIRT2 (Homo sapiens, UniProt Q8IXJ6)" assay_result="> 200 µM"
compound="O=C1/C(=C/c2ccccc2Br)COC/C1=C\\c1ccccc1Br [Compound 4b]" tgt="SIRT2 (Homo sapiens, UniProt Q8IXJ6)" assay_result="> 200 µM"
compound="O=C1/C(=C/c2ccccc2Br)CN(CCCc2ccccc2)C/C1=C\\c1ccccc1Br [Compound 4g]" tgt="SIRT2 (Homo sapiens, UniProt Q8IXJ6)" assay_result="> 200 µM"
compound="O=C1/C(=C/c2ccccc2Br)CNC/C1=C\\c1ccccc1Br [Compound 4c]" tgt="SIRT2 (Homo sapiens, UniProt Q8IXJ6)" assay_result="> 200 µM"
compound="O=C1/C(=C/c2ccccc2Br)CN(C(=O)c2ccccc2)C/C1=C\\c1ccccc1Br [Compound 4k]" tgt="SIRT2 (Homo sapiens, UniProt Q8IXJ6)" assay_result="> 200 µM"
compound="O=C1/C(=C/c2ccccc2Br)CN(C(=O)CCc2ccccc2)C/C1=C\\c1ccccc1Br [Compound 4m]" tgt="SIRT2 (Homo sapiens, UniProt Q8IXJ6)" assay_result="> 200 µM"
compound="O=C1/C(=C/c2ccccc2Br)CN(CC(=O)c2ccccc2)C/C1=C\\c1ccccc1Br [Compound 4h]" tgt="SIRT2 (Homo sapiens, UniProt Q8IXJ6)" assay_result="> 200 µM"
compound="CN1C/C(=C\\c2ccccc2Br)C(=O)/C(=C/c2ccccc2Br)C1 [Compound 4d]" tgt="SIRT2 (Homo sapiens, UniProt Q8IXJ6)" assay_result="> 200 µM"
compound="O=C1/C(=C/c2ccccc2Br)CN(C(=O)C=Cc2ccccc2)C/C1=C\\c1ccccc1Br [Compound 4n]" tgt="SIRT2 (Homo sapiens, UniProt Q8IXJ6)" assay_result="> 200 µM"
compound="O=C1/C(=C/c2ccccc2Br)CCC/C1=C\\c1ccccc1Br [Compound 4a]" tgt="SIRT2 (Homo sapiens, UniProt Q8IXJ6)" assay_result="> 200 µM"
compound="O=C1/C(=C/c2ccccc2Br)CN(C(=O)Cc2ccccc2)C/C1=C\\c1ccccc1Br [Compound 4l]" tgt="SIRT2 (Homo sapiens, UniProt Q8IXJ6)" assay_result="> 200 µM"

* * *

- assay-remarks: Cell viability in non-cancer mesenchymal progenitor cells (differential toxicity)
- Type: cell-based
- experimental-setup: human, MePR2B cells, control 100%, read-out: percentage of cell viability
experimental-readout: viability at 30 h, 5 µM (%)

mol_smiles=O=C1/C(=C/c2ccccc2Br)CN(C(=O)CCc2ccccc2)C/C1=C\c1ccccc1Br readout_units=% assay_result=85.5
mol_smiles=O=C1/C(=C/c2ccccc2Br)CN(C(=O)Cc2ccccc2)C/C1=C\c1ccccc1Br readout_units=% assay_result=61.2

* * *

Recorded IC50, one value per entry.
- tgt: SIRT1 (Homo sapiens)
- Construct: host or cells: E. coli
- Sequence (Q96EB6 whole entry): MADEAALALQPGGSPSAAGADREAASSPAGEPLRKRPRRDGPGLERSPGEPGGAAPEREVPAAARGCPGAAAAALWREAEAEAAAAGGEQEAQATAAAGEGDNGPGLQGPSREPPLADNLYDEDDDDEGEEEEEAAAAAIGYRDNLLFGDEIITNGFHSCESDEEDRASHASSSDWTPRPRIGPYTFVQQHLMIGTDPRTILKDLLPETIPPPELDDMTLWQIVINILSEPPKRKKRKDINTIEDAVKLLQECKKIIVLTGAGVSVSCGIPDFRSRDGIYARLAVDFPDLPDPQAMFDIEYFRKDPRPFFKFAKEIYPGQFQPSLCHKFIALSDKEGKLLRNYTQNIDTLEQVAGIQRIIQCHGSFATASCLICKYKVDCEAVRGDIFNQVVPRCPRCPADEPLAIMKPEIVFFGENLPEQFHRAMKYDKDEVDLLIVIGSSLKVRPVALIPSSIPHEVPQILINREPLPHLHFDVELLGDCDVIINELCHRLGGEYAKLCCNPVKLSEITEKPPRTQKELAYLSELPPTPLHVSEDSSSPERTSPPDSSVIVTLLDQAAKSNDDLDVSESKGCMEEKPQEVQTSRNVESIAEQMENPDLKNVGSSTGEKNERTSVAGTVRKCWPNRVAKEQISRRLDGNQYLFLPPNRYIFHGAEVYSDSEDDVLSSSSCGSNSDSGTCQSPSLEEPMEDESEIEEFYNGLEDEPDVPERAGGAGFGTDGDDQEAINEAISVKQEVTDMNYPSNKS
- assay-remarks: Modified Fluor de Lys fluorescence-based assay, SIRT1
- Type: biochemical
- experimental-setup: from 200 μM; p53 379-382 AMC substrate, NAD+
- Protocol: The newly synthesized compounds 4a–n were tested to determine their effects against acetylation and methylation epigenetic targets. First, 4a–n were screened in vitro against the two HAT enzymes p300 and PCAF. […] To determine the activity against SIRT1 and -2, 4a–n were tested starting from 200 μM solutions using a modified Fluor de Lys fluorescence-based assay with amino acids 379–382 (Arg-His-Lys-Lys(Ac)) of human p53 conjugated with aminomethylcoumarin as substrate and NAD^+ as co-substrate. […]
experimental-readout: IC50

molecule="O=C1/C(=C/c2ccccc2Br)CNC/C1=C\\c1ccccc1Br [Compound 4c]" experimental_readout=IC50 assay_result="> 200 µM"
molecule="O=C1/C(=C/c2ccccc2Br)CCC/C1=C\\c1ccccc1Br [Compound 4a]" experimental_readout=IC50 assay_result="> 200 µM"
molecule="O=C1/C(=C/c2ccccc2Br)CN(CCCc2ccccc2)C/C1=C\\c1ccccc1Br [Compound 4g]" experimental_readout=IC50 assay_result="> 200 µM"
molecule="O=C1/C(=C/c2ccccc2Br)CN(C(=O)c2ccccc2)C/C1=C\\c1ccccc1Br [Compound 4k]" experimental_readout=IC50 assay_result="> 200 µM"
molecule="O=C1/C(=C/c2ccccc2Br)COC/C1=C\\c1ccccc1Br [Compound 4b]" experimental_readout=IC50 assay_result="> 200 µM"

* * *

- tgt: CARM1 (Homo sapiens, UniProt Q86X55)
- Sequence (Q86X55 1-608): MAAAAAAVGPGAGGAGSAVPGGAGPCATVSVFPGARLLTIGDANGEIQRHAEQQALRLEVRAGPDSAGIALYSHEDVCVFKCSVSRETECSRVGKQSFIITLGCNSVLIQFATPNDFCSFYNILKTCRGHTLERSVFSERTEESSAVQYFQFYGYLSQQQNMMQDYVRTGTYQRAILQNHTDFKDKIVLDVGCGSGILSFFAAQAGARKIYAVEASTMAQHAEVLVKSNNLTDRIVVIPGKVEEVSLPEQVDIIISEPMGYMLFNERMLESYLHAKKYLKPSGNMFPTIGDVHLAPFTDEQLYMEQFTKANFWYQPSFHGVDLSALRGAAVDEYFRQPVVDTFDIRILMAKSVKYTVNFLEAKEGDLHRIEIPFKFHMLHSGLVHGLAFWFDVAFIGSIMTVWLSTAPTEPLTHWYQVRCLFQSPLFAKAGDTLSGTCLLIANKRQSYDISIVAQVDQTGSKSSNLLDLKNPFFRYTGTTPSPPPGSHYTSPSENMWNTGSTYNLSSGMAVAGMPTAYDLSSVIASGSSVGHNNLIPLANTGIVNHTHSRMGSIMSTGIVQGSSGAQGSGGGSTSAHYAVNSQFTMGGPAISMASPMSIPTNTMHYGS
IC50 less than 5 µM is fulfilled; IC50 greater than or equal to 5 µM is not fulfilled.

molecule="O=C1/C(=C/c2ccccc2Br)CNC/C1=C\\c1ccccc1Br [Compound 4c]" discrete_label="not fulfilled"
molecule="O=C1/C(=C/c2ccccc2Br)CN(C(=O)c2ccccc2)C/C1=C\\c1ccccc1Br [Compound 4k]" discrete_label=fulfilled
molecule="O=C1/C(=C/c2ccccc2Br)CN(CCCC(=O)c2ccccc2)C/C1=C\\c1ccccc1Br [Compound 4j]" discrete_label=fulfilled
molecule="O=C1/C(=C/c2ccccc2Br)CN(C(=O)Cc2ccccc2)C/C1=C\\c1ccccc1Br [Compound 4l]" discrete_label=fulfilled
molecule="O=C1/C(=C/c2ccccc2Br)CN(CCC(=O)c2ccccc2)C/C1=C\\c1ccccc1Br [Compound 4i]" discrete_label="not fulfilled"
molecule="O=C1/C(=C/c2ccccc2Br)CN(C(=O)CCc2ccccc2)C/C1=C\\c1ccccc1Br [Compound 4m]" discrete_label=fulfilled
molecule="O=C1/C(=C/c2ccccc2Br)CN(CCc2ccccc2)C/C1=C\\c1ccccc1Br [Compound 4f]" discrete_label="not fulfilled"
molecule="O=C1/C(=C/c2ccccc2Br)CN(CCCc2ccccc2)C/C1=C\\c1ccccc1Br [Compound 4g]" discrete_label="not fulfilled"
molecule="CN1C/C(=C\\c2ccccc2Br)C(=O)/C(=C/c2ccccc2Br)C1 [Compound 4d]" discrete_label=fulfilled
molecule="O=C1/C(=C/c2ccccc2Br)CN(C(=O)C=Cc2ccccc2)C/C1=C\\c1ccccc1Br [Compound 4n]" discrete_label="not fulfilled"
molecule="O=C1/C(=C/c2ccccc2Br)CN(CC(=O)c2ccccc2)C/C1=C\\c1ccccc1Br [Compound 4h]" discrete_label="not fulfilled"
molecule="O=C1/C(=C/c2ccccc2Br)CCC/C1=C\\c1ccccc1Br [Compound 4a]" discrete_label="not fulfilled"
molecule="O=C1/C(=C/c2ccccc2Br)CN(Cc2ccccc2)C/C1=C\\c1ccccc1Br [Compound 4e]" discrete_label="not fulfilled"

* * *

- tgt: p300 (Homo sapiens, UniProt Q09472)
- Construct: p300 (aa 1284–1673, 30 nM); purchased Reaction Biology Corporation
- Sequence (Q09472 1284-1673): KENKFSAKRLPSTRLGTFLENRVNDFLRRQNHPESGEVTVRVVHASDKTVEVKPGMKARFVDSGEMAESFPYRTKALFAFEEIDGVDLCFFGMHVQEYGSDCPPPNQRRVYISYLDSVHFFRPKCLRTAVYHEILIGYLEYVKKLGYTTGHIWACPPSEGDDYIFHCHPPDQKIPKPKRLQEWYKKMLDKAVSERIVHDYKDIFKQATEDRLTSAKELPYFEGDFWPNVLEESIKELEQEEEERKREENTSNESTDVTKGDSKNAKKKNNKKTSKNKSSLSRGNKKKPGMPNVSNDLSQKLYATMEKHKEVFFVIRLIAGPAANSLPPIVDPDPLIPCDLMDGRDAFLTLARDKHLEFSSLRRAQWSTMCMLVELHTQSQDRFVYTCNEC
- assay-remarks: HotSpot HAT activity assay, p300
- Assay type: biochemical
- experimental-setup: 10-dose, triplicate, from 200 μM; histone H3, [acetyl-3H]-acetyl-CoA
experimental-readout: IC50

mol_smiles=O=C1/C(=C/c2ccccc2Br)CN(CCCC(=O)c2ccccc2)C/C1=C\c1ccccc1Br experimental_readout=IC50 assay_result="2.13 µM"
mol_smiles=O=C1/C(=C/c2ccccc2Br)CN(C(=O)c2ccccc2)C/C1=C\c1ccccc1Br experimental_readout=IC50 assay_result="2.09 µM"
mol_smiles=O=C1/C(=C/c2ccccc2Br)CN(C(=O)C=Cc2ccccc2)C/C1=C\c1ccccc1Br experimental_readout=IC50 assay_result="1.23 µM"
mol_smiles=O=C1/C(=C/c2ccccc2Br)CNC/C1=C\c1ccccc1Br experimental_readout=IC50 assay_result="23.2 µM"
mol_smiles=O=C1/C(=C/c2ccccc2Br)CN(CCc2ccccc2)C/C1=C\c1ccccc1Br experimental_readout=IC50 assay_result="30.2 µM"
mol_smiles=O=C1/C(=C/c2ccccc2Br)CN(C(=O)CCc2ccccc2)C/C1=C\c1ccccc1Br experimental_readout=IC50 assay_result="0.46 µM"
mol_smiles=CN1C/C(=C\c2ccccc2Br)C(=O)/C(=C/c2ccccc2Br)C1 experimental_readout=IC50 assay_result="2.66 µM"
mol_smiles=O=C1/C(=C/c2ccccc2Br)CN(CCCc2ccccc2)C/C1=C\c1ccccc1Br experimental_readout=IC50 assay_result="40.7 µM"
